- Method description: small molecules captured by biotinylated probe aFSTL3 – biochemical, small-molecule microarray, fluorescence 635/667, stem cell growth factor project, primary screen (AID 1064);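 further: measures binding of the biotinylated anti-FSTL3 antibody to printed compounds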
- Assay setup: higher = more signal
Class field: derived from composite z-score; ranges class 0: < -0.1; class 1: ≥ -0.1 and < 0.5; class 2: ≥ 0.5

{"Compound": "O=C1N(Cc2ccccc2)c2ccccc2C[C@]12N=C(c1ccc(OCCCO)cc1)O[C@@H]2c1ccccc1", "Label class": "class 1"}
{"Compound": "COc1ccc([Si](C)(C)[C@H]2[C@H](CC(=O)N3Cc4ccccc4C[C@H]3CO)O[C@@]3(C(=O)N(Cc4ccc(N5CCOC5=O)cc4)c4ccccc43)[C@@H]2C)cc1", "Label class": "class 0"}
{"Compound": "C[C@@H]1NC(=O)[C@@H](Cc2ccccc2)NC(=O)[C@@]23C(=O)N[C@@H](Cc4ccccc4)C2[C@H](C)[C@@]2(C)O[C@H]2C3/C=C/C/C=C\\CNC1=O (stereo not given in full)", "Label class": "class 0"}
{"Compound": "COc1ccc(C#Cc2ccc3c(c2)[C@]2(C(=O)N3)[C@H](c3ccc(O)cc3)N3[C@H](c4ccccc4)[C@H](c4ccccc4)OC(=O)[C@H]3[C@@H]2C(=O)Nc2nc3ccccc3s2)cc1", "Label class": "class 0"}
{"Compound": "COC(=O)[C@@]1(Cc2ccc(F)cc2)[C@H]2c3cc(C(=O)N(C)C)n(CCc4ccc(OC)c(Br)c4)c3C[C@H]2CN1C(=O)c1ccccc1", "Label class": "class 2"}
{"Compound": "CC(c1ccccc1)C(O)C1C=CC2C(=O)N(C)C(=O)C2N1Nc1ccccc1 (stereo not given)", "Label class": "class 2"}
{"Compound": "COc1cc2c(cc1O)C(c1cccs1)N(Cc1cc3c(cc1Br)OCO3)CC2 (stereo not given)", "Label class": "class 1"}
{"Compound": "COC(=O)[C@@]1(Cc2ccc(F)cc2)[C@H]2c3cc(C(=O)N4CCCC4)n(CCc4c[nH]c5ccccc45)c3C[C@H]2CN1C(=O)c1ccccc1", "Label class": "class 1"}
{"Compound": "CCCC=C(CCC)[C@@H](NS(=O)(=O)CC12CCC(CC1=O)C2(C)C)c1ccc(C(=O)OC)cc1 (stereo not given in full)", "Label class": "class 0"}
{"Compound": "CCCCC(=C=CC[C@H](O)c1ccc(OCCO)cc1)CCO", "Label class": "class 0"}
{"Compound": "C=C[C@@H](CO)N(Cc1ccc(OC)cc1)S(=O)(=O)c1ccc(Br)cc1", "Label class": "class 0"}
{"Compound": "COC(=O)c1c(CC[C@@H](CO)NC(=O)N[C@@H](C)Cn2cc(-c3ccccn3)nn2)oc(C(C)=O)c1C(=O)OC", "Label class": "class 0"}
{"Compound": "CN1C2C=C(CCCO)C(C3C(=O)N(C(N)=O)C(=O)C32)C1C1CC1 (stereo not given)", "Label class": "class 0"}
{"Compound": "CCCCC(CC)C(O)C1C=CC2C(=O)N(c3ccccc3)C(=O)C2N1Nc1ccc(C#N)cc1 (stereo not given)", "Label class": "class 2"}
{"Compound": "CC(C)N1C(=O)C[C@@](C(=O)NC2CC2)(c2ccc([N+](=O)[O-])cc2)[C@H]1c1ccc(CO)cc1", "Label class": "class 2"}
{"Compound": "CC(C)C(CO)N1C(=O)[C@@H]2[C@H]3C(=O)OCC=C[C@H]3OC23C=CCN(c2ccc(Cl)cc2)C(=O)[C@@H]13 (stereo not given in full)", "Label class": "class 1"}
{"Compound": "CCOC(=O)C[C@H]1[C@H](OC(=O)c2ccc(C(=O)c3ccccc3)cc2)[C@@H](NC(=O)C2CCCCC2)c2cc(OCCCO)ccc2N1C(=O)c1ccc2ccccc2n1", "Label class": "class 0"}
{"Compound": "COc1ccc(CCNC(=O)[C@@]2(c3ccc([N+](=O)[O-])cc3)CC(=O)N(C3CCCCC3)[C@@H]2c2ccc(CO)cc2)cc1", "Label class": "class 1"}
{"Compound": "Cc1ccc(S[C@]2(C(=O)NCCN3CCOCC3)CC(=O)N(Cc3ccccc3Cl)[C@@H]2c2ccc(CO)cc2I)cc1", "Label class": "class 2"}
{"Compound": "COc1ccc(C(=O)Nc2ccc(CN3C(=O)[C@]4(O[C@H](CC(=O)N5Cc6ccccc6C[C@H]5CO)[C@@H]([Si](C)(C)c5ccc(OC)cc5)[C@@H]4C)c4ccccc43)cc2)cc1", "Label class": "class 0"}
{"Compound": "O=C1OCCC=C[C@H]2OC34C=CCN(c5ccc6ccccc6c5)C(=O)[C@H]3N(CCCO)C(=O)[C@@H]4C12 (stereo not given in full)", "Label class": "class 2"}
{"Compound": "COC(=O)c1c(CC[C@@H](CO)NC(=O)N2CCC[C@H]2Cn2cc(C3(O)CCCCC3)nn2)oc(C(C)=O)c1C(=O)OC", "Label class": "class 0"}
{"Compound": "CC(C)[Si]1(C(C)C)OCc2cc(-c3ccc(-c4ccc(Cl)c(Cl)c4)o3)nc(-c3ccccc3)c21", "Label class": "class 2"}
{"Compound": "CCCNC(=O)[C@@]1(C)c2ccccc2C(=O)N(c2ccc(C)cn2)[C@H]1c1ccc(CO)cc1", "Label class": "class 1"}
{"Compound": "CN(C)C(=O)[C@]1(CCC(=O)OC(C)(C)C)N=C(c2ccc(OCCCO)cc2)O[C@@H]1c1ccccc1CN=[N+]=[N-]", "Label class": "class 1"}
{"Compound": "[N-]=[N+]=Nc1ccccc1C[C@]1(C(=O)NCCN2CCOCC2)COC(c2ccc(OCCCO)cc2)=N1", "Label class": "class 1"}
{"Compound": "CCOC(=O)C[C@H]1[C@H](OC(=O)Cc2ccc3c(c2)OCO3)[C@@H](NC(=O)C2CCCCC2)c2cc(OCCCO)ccc2N1C(=O)c1ccccc1", "Label class": "class 1"}
{"Compound": "O=C(Cc1ccccc1)[C@H]1C2C=CCCC(c3ccccc3)=C2CN1Cc1ccccc1 (stereo not given in full)", "Label class": "class 0"}

Reference for the values: PubChem BioAssay
